// reported protease stability score for each item listed
- Experiment description: protease stability score; higher = more stable; yeast display proteolysis, trypsin and chymotrypsin;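 note: relative to predicted unfolded state with 0 unfolded-like and 1 meaning tenfold more protease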
Write no unit; give the number alone.

1. SEDDDLIREFFEDWVKSVLTGDEDTIAKLADPHTRHEYGDKEHHGRDLVVEMLTFLYKHIRFEDVRLRHFDIQGNKIILHGKVEGKIDGRHRTFDVTIEVIKVNGQWLWHTIVIR | 1.89

Query: protease stability score; subject: DEHEREMHRLVDLLIKLLETGDEEISLRLADPHTRHDINGVHDHGRDKWEKSWEEHKKHLGWRIHYRIRDFRTQGDKARMEIQVDLHIGDKNIHLETHLLLISIDGVIKEIRIIIL
1.39

Query: protease stability score; subject: SEEEHLAREMTELHKQAELTGDEHFLNELMDPHVRIDINGVPAIGWEESNEVLKRIWEEMRIDDIRPTHVELQGNKIHVHVQSHITIDGQRRIFHERIVIVVFNGRMREVKFDIH
1.19

----------
- Experiment description: protease stability score; higher = more stable; yeast display proteolysis, trypsin and chymotrypsin;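 note: relative to predicted unfolded state with 0 unfolded-like and 1 meaning tenfold more protease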
Readout label: protease stability score
Write no unit; give the number alone.

Solved cases (2 shown):
1) DEIHEKVQLAAEIFEEIVRTGDEELFMRYMDPHVRLIDENEIYHGMDIWHKWLHERHEKLGAKHEEVKTRSLDLQGEKLRVEGDFVVNVNGRTFHHRLHLIYRKIDGQWRYEQISLE | 0.853
2) SDLDQEMKTWLEETIRLLNTGNEEEWTKLADPNARVEIGDKHYHGWESLEELRKIFGVEKIDYRFTRIEVQGEKADSDVRIEVNGRELHVRLIIVVVNGRHKSMRVIFG | 1.99

Next, consider the following sequence.
Query: protease stability score; subject: SEEEEEVHKFMEDLARAYLTGDEKRFRELVDPNVKSNIDGQTIHGREELTKWVSDSAKKYGVDHLEMRVRTINIQGNKAHMDGEIVLEYGDKRVSRQVEIVVTKINGQWLLEREHIH
1.88

----------
- Experiment description: protease stability score; higher = more stable; yeast display proteolysis, trypsin and chymotrypsin;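 note: relative to predicted unfolded state with 0 unfolded-like and 1 meaning tenfold more protease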
// reported protease stability score for each item listed
Write no unit; give the number alone.

1. DEDDQWSEMLAKKYLDRVLTGDEKRMKSLLDPNVRLSVNGVDMHGREVFVHWLRTVLNRVDHQELRLRHLHSQGDKAHVDTEVIENWDGVKIVKETELEFIFVNGRFHSVFHRER | 0.267
2. REDKKDAEDIIRWLLRAWHTGDPRDVEKMMDPNTLSDINGQKIHGREDVSRFNEFILRHARVEVDVHSMEVYGNYLHVDERFTLRIGDKEIRTETHIIIIKVNGRWLVQTISYG | 0.782
3. SEEEHHAKKIAEDFLRWFITGDEDVLSHYADPDVRSRIGDKHHHGREELRRVMERLVRELRIKEIRIERYEVQGEKAILDSRVRGDVNGVEVEVRQIVIVVVIDGRLKSMELRLG | 0.516

Query: protease stability score; subject: TKEEELAHRALHEWINDINTGNEEEFKELVDPNARMLVDGRHHHGREHVINVFIHLIRKVKNLTVDLDEIEIQGDKVTVIGILRVDGREIHITIHSRKINGRWHFEDIVWE
1.6

Query: protease stability score; subject: DEEEELLRKLVEELHKALRTGNEHVLRHLIDPHVRIDIDGRELHGREQFVELWKRLVDELRIHDMKIRSIKTQGDFVHSSTELDLEYGDKKFRLTTELDVRSIDGRVKHVSIRYH
1.53

Query: protease stability score; subject: DEEQHRMEEELRKMFEHLFTGDFKWLHKNVDPNARLDIGDKHVHGREAMVELIIRHVESLGVDHVKIRHVEVQGEKIEIRGESKVGDWKFSHHINVIVVDGVHKHFRIENR
0.684

Query: protease stability score; subject: DEDEEQARRLAELIRHLLITGDEYVNRKMADPRVQFILHQGDKNYLHHGRDEVVRRLRELWEEWGFDQIHVNLDDVKIVNGRVIIHTRLQVGDKHMELRFIIEKIDGKWLVTHEQIHLH
1.62

Query: protease stability score; subject: SEDEWWARYVTKLLIHSMKTGDEDLLHELADPSTKLDVGDKRYHGREEFRRLMRELRERADHLTISIKHIEVQGDKVDLDMHIRLEYGDKFIELRVHIHVEKVNGQWRLREREER
0.879

Query: protease stability score; subject: SEEEEFVEVAIKIVQEIRKTGDEDEQERLADPHVRFDINGQDIHGREKWTKWVHEIRVRMKHVRERHITVINGKAHIHGEVDVHFHVNGVELRIDTKYTVVIEKVNGRWRLREVHLV
2.22

Query: protease stability score; subject: SEEEEEMRRMVDDIFRMLLTGDWRDFLHLADPTVRLHIGDKQAHGRTQVFELLKLYLHEWREKTIVHESIHHINGVSIIHGSLRVRINGQEHEFKVTWNIFIYDGRLKSMEIRFH
0.337

Query: protease stability score; subject: DEEEEILRRFIEEWLYAELTGDFHVLHELFDPNVRIEINGVDKHGMHIVIKELLEFYRRVKNLRVEFELRDEKRFDGVVIIIGVRRISINGQTHEEETILVIVKVNGRWVMKEIWFN
1.64

Query: protease stability score; subject: VEDLREYIRIAEELVKSWITGDWDRLRKLVDPNVRLDVDGVENIGRDHVHRALEEHEKHIRLKDHRIEHIDAVDGKSTMHTRSHFHINGVEHEVNVHMEFVIVNGRVTEMRISIR
1.02

Query: protease stability score; subject: DENEHIAREFLRQFLRQVETGDEYRLMELMDPNARINFDGKDLHGRDEWIRKIREIRFDQTHIHDVRIQGNKMEVDTRWDGEINGVRTIFDVHMDIRKVDGKWIIKVINIH
1.66

Query: protease stability score; subject: SEDREFAEKMLRIVSDLENTGDEEKARHLLDPNVRSVIDGQDLIGWHLRRHWLHELRIKSHRVDVHDIHVYNGQIEFNVREDGNIVVNGVEIRIELRTKMTFRKFDGQWYVKSIEIK
1.45

Query: protease stability score; subject: DEVIEELERFHRTYQHAVHTGDEETHADLMDPNVRIHIGDKHIHGREWLIELVHRLGFKHSKEHWIIRRYDLQGNKVDEDGEVKRILNINGVLEHEERRVRIIILKIDGKWIIHSMHIR
0.433

Query: protease stability score; subject: DREERDTREALRILHEISRTGDEELLDRQMDPDVKIDFENHEFHGREEASTLIHEIYQKWGLSNVEMDIKRVRTVGEKVDIDGRLHFNGVTRDIRLINLKVNGKWFIHSIIFR
1.2

Query: protease stability score; subject: SEDEKQLEHAVKLFIESLRTGDEHSLENLVDPNVRMQINGVELHGRELFIHLFREWRFHSVHLRHLDLQGDKVHLDGKLDVRFDGRRYEVILRTHIEKIDGRWHLRYMYEE
1.45

Query: protease stability score; subject: SEEEEKTRRILEELFELFLTGDEQRTLELFDPNMRFHLHYGDKELHLHGREEVAKFLHDHRHRVKNVKFHLKKEEVQGDKAILYIRVEIDGQEVYLNIEIHVIDGKLHEVVERIHEV
2.25

Query: protease stability score; subject: RELERDSTELIKMWLRHLETGDEDVISELIDPNVKVDINGQDHHGREDATEWAMRVKNMTIIVRHLEFQGEKAFVTTEVRVNGKTVHVIVRSLKVDGRWRLESLEVHSE
1.59

Query: protease stability score; subject: SEDERLALKMAEVIMHHLSTGDERILESFFDPNVQFIYGDKTNHGMEETLKFWEHIRIEVKSFTWKHITHVDGRLEMHTRSRELFIYGEFKEDRETRVHIIIDKVDGKWNHHSVRFR
0.06

Query: protease stability score; subject: DEDEERAQEMAKRLEDSLHTGDEETHQNLMDPHMRLRVNGKEFHGRENILHFLREWRIHHLDVRLRHIDDRGEYIIINSEVRVDGNIDGKRTELHTISEIILVKVDGRWMTDEFRFH
0.72

Query: protease stability score; subject: DEDEEEVRKFLHLELRSMETGDEHDLRRLADPHVRIHINGVILHGWEFFLETFRKLGFDHLRIEHVEVQGEKVHIKSRFEIGDKSFETEIIIRKVDGRWYVESIIVN
0.873

----------
// reported protease stability score for each item listed
- Experiment description: protease stability score; higher = more stable; yeast display proteolysis, trypsin and chymotrypsin;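 note: relative to predicted unfolded state with 0 unfolded-like and 1 meaning tenfold more protease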
Write no unit; give the number alone.

Solved cases (2 shown):
1) SEEEEHIHRLARLYWRLWETGDEETLAHLMDPNVRQIIHVGDKEFHNVGREKIIKVTKHVFEKLGVKHIKIRDMRVINGVVEIDTEVNVDGRTFDTRIKVLIVDGRIHELRWIVE | 1.65
2) DEEEHDLRLAVELWHRLLETGDERVEKHLIDPHVRVHFNGRDLHGREAATWTLRTMGVKVFELKRIETFNGQVNIHQHVNVDGQHYDLIIHARKIDGRWVNESMRIH | 0.667

Query: protease stability score; subject: DEATKDAERIIEMFIRAIETGDEKVFKRLLDPNVRLVVDGKEFHGREKFIEWLRRIDVTHQVHFRLHDSDMQGDKLHLDSSEIHDVKYNGVRFVDHYRVHLQIHKFDGRWHLENIIIR
1.51
